Entries and their measured MIC follow.
system: Escherichia coli ISF 432

>  <molecule>
Nc1cc2c(=O)c(C(=O)O)cn(-c3ccc(F)cc3)c2cc1N1CCc2ccccc2C1 [Compound 52]

>  <MIC / µg/mL>
0.12

$$$$
>  <molecule>
Cc1c(N2CCSCC2)c(N)cc2c(=O)c(C(=O)O)cn(C3CC3)c12 [Compound 35]

>  <MIC / µg/mL>
0.06

$$$$
>  <molecule>
Nc1cc2c(=O)c(C(=O)O)cn(C3CC3)c2c(F)c1N1CCSCC1 [Compound 23]

>  <MIC / µg/mL>
0.06

$$$$
>  <molecule>
Nc1cc2c(=O)c(C(=O)O)cn(C3CC3)c2cc1N1CCSCC1 [Compound 15]

>  <MIC / µg/mL>
0.03

$$$$
>  <molecule>
CN1CCN(c2c(N)cc3c(=O)c(C(=O)O)cn(C4CC4)c3c2F)CC1 [Compound 22]

>  <MIC / µg/mL>
0.06

$$$$
>  <molecule>
Nc1cc2c(=O)c(C(=O)O)cn(C3CC3)c2cc1N1CCNCC1 [Compound 9]

>  <MIC / µg/mL>
0.03

$$$$
>  <molecule>
CC(C)(C)n1cc(C(=O)O)c(=O)c2cc(N)c(N3CCN(c4ccccn4)CC3)cc21 [Compound 48]

>  <MIC / µg/mL>
0.5

$$$$
>  <molecule>
CN1CCN(c2cc3c(cc2N)c(=O)c(C(=O)O)cn3C2CC2)CC1 [Compound 8]

>  <MIC / µg/mL>
0.03

$$$$

----------
Read-out record for Staphylococcus epidermidis CPHL A2: MIC

>  <compound>
Nc1cc2c(=O)c(C(=O)O)cn(-c3ccc(F)cc3)c2cc1N1CCSCC1 [Compound 51]

>  <MIC>
2 µg/mL

$$$$
>  <compound>
Nc1cc2c(=O)c(C(=O)O)cn(C3CC3)c2cc1N1CCNCC1 [Compound 9]

>  <MIC>
16 µg/mL

$$$$
>  <compound>
CN1CCN(c2c(N)cc3c(=O)c(C(=O)O)cn(C4CC4)c3c2F)CC1 [Compound 22]

>  <MIC>
4 µg/mL

$$$$
>  <compound>
CN1CCN(c2cc3c(cc2N)c(=O)c(C(=O)O)cn3C2CC2)CC1 [Compound 8]

>  <MIC>
2 µg/mL

$$$$
>  <compound>
CC1CN(c2cc3c(cc2N)c(=O)c(C(=O)O)cn3C2CC2)CCN1 (centres unmarked) [Compound 14]

>  <MIC>
4 µg/mL

$$$$
>  <compound>
CC(C)(C)n1cc(C(=O)O)c(=O)c2cc(N)c(N3CCSCC3)cc21 [Compound 46]

>  <MIC>
0.5 µg/mL

$$$$
>  <compound>
Cc1c(N2CCN(C)CC2)c(N)cc2c(=O)c(C(=O)O)cn(C3CC3)c12 [Compound 33]

>  <MIC>
1 µg/mL

$$$$
>  <compound>
CN1CCN(c2nc3c(cc2N)c(=O)c(C(=O)O)cn3C2CC2)CC1 [Compound 40]

>  <MIC>
4 µg/mL

$$$$
>  <compound>
CN1CCN(c2c(F)cc3c(=O)c(C(=O)O)cn4c3c2SCC4)CC1 [RUFLOXACIN, reference compound]

>  <MIC>
1 µg/mL

$$$$
>  <compound>
CC(C)(C)n1cc(C(=O)O)c(=O)c2cc(N)c(N3CCc4ccccc4C3)cc21 [Compound 47]

>  <MIC>
0.5 µg/mL

$$$$
>  <compound>
CN1CCN(c2cc3c(cc2N)c(=O)c(C(=O)O)cn3-c2ccc(F)cc2)CC1 [Compound 50]

>  <MIC>
8 µg/mL

$$$$
>  <compound>
Nc1cc2c(=O)c(C(=O)O)cn(C3CC3)c2cc1N1CCCC1 [Compound 10]

>  <MIC>
128 µg/mL

$$$$
>  <compound>
CN1CCN(c2nc3c(c(N)c2N)c(=O)c(C(=O)O)cn3C2CC2)CC1 [Compound 42]

>  <MIC>
4 µg/mL

$$$$
>  <compound>
Nc1cc2c(=O)c(C(=O)O)cn(C3CC3)c2c(F)c1N1CCSCC1 [Compound 23]

>  <MIC>
0.5 µg/mL

$$$$

Data provenance is patent EP0531958A1.
